Taken from patent US12351572B2.

- method_notes: Pharmacokinetics in C57BL/6 mice
- Type: in vivo
- assay_conditions: male, mouse, plasma, iv, C0, I.V. (2 mg/kg), read-out: C0 or Cmax
measure: Cmax
# output: numeric value plus its unit

Prompt: // lookup Cmax for [2H]C([2H])([2H])NC(=O)c1nnc(NC(=O)C2CC2)cc1Nc1cccc(-c2ncn(C)n2)c1OC [control, BMS-986165]
Response: 3220 ng/mL

---

- method_notes: Pharmacokinetics in cynomolgus monkeys
- Type: in vivo
- assay_conditions: cynomolgus monkey, plasma, iv, C0, I.V. (1 mg/kg), read-out: C0 or Cmax
measure: Cmax (ng/mL)
Kindly provide the numeric value in ng/mL only, without the unit symbol.

Prompt: // lookup Cmax for [2H]C([2H])([2H])NC(=O)c1nnc(NC(=O)C2CC2)cc1Nc1cccc(-c2ncn(C)n2)c1OC [control, BMS-986165]
Response: 1420
